- Species: Homo sapiens
- protocol notes: To identify inhibition of the IFN signalling (Jak-Stat) pathway via expression of an eGFP reporter gene under the control of an IFN-stimulated response element (ISRE) containing MxA promoter.
- Assay type: functional
- Parameters: scale not given: direction of the effect not stated beside the values
- study conditions: 30 µM
// Percent Effect lookup, one value per entry
attribute measured: Percent Effect (%)

N#Cc1ccnc(N2CCN(C(=O)NC3CCS(=O)(=O)C3)CC2)c1 (stereo unspecified)    14.6
CCc1ccc(CN2C[C@@H]3OCCN(c4ccnc(N(C)C)n4)[C@@H]3C2)o1    82.1
Cc1ccc2oc(CNC(C)c3nnc4n3CCCC4)cc2c1 (stereo unspecified)    17.8
CCN1CC2(CC1=O)CN(C(C)=O)CCN(C(=O)c1ccco1)C2 (stereo unspecified)    4.81
Cc1cn2c(n1)CCC(NC(=O)CCC(F)(F)F)C2 (stereo unspecified)    -6.31
CCS(=O)(=O)CCNC(=O)c1ccc(-c2ccc(C)cc2)cc1F    18.8
